Molecular target: Serine/threonine-protein kinase WNK1 [1-491] (Homo sapiens, UniProt Q9H4A3)
Construct: 1-491
Sequence (Q9H4A3 1-491): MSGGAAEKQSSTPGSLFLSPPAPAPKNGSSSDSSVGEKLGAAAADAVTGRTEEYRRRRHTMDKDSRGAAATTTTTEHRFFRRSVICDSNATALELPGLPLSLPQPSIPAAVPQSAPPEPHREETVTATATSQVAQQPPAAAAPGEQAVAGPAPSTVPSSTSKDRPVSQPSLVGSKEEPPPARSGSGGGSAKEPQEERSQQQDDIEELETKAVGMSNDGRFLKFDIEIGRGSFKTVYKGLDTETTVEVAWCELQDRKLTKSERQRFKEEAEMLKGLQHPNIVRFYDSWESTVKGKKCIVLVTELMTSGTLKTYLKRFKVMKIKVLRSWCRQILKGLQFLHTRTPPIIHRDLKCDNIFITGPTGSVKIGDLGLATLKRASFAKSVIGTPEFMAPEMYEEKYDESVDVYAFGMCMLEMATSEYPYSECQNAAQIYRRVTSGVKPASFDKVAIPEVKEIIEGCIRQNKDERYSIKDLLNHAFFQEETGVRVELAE
Experiment: In vitro MBP Phosphorylation Assay (MBP)
Settings: pH 7.3; 25 °C
Entries annotated with measured pIC50
Scale: pIC50 equals -log10([C]), with [C] in mol/L.

{"compound": "COc1ccc(CC(=O)N2CCC(n3cncc3C(=O)NCCc3ccccc3)C2)cc1 (configuration not stated)", "pIC50": 6.07}

Return pIC50 (reported value) for this compound: "CC(C)(C)NC(=O)c1cncn1C1CCN(c2ccc(-c3nnc(C(F)(F)F)o3)cc2)CC1"
8.30

###

Biological target: Serine/threonine-protein kinase WNK1 [1-491] (Homo sapiens, UniProt Q9H4A3)
Construct: 1-491
Assay: In vitro OSR1 Phosphorylation Assay (OSR1)
Conditions: pH 7.3; 4 °C
valueKind: pIC50
Just the number, please; pIC50 means minus log10 of the concentration in mol/L.

Please report pIC50 for the following molecule: "CC(C)(C)NC(=O)c1cncn1C1CCN(c2ccc(-c3nnc(C(F)(F)F)o3)cc2)CC1"
7.39

###

Target: Serine/threonine-protein kinase WNK1 [166-489] (Homo sapiens)
valueKind: pIC50
Just so you know, pIC50 here is -log10 of the concentration in molar units; reply with that number alone.

Find the measured pIC50 of CC(C)(C)NC(=O)c1cncn1C1CCN(c2ccc(-c3nnc(C(F)(F)F)o3)cc2)CC1 [WNK463 (2)] and report it.
9.00
